measurement-target: Human Recombinant Matriptase 2 (Homo sapiens)
Construct: made in house
Sequence (Q8IU80 whole entry): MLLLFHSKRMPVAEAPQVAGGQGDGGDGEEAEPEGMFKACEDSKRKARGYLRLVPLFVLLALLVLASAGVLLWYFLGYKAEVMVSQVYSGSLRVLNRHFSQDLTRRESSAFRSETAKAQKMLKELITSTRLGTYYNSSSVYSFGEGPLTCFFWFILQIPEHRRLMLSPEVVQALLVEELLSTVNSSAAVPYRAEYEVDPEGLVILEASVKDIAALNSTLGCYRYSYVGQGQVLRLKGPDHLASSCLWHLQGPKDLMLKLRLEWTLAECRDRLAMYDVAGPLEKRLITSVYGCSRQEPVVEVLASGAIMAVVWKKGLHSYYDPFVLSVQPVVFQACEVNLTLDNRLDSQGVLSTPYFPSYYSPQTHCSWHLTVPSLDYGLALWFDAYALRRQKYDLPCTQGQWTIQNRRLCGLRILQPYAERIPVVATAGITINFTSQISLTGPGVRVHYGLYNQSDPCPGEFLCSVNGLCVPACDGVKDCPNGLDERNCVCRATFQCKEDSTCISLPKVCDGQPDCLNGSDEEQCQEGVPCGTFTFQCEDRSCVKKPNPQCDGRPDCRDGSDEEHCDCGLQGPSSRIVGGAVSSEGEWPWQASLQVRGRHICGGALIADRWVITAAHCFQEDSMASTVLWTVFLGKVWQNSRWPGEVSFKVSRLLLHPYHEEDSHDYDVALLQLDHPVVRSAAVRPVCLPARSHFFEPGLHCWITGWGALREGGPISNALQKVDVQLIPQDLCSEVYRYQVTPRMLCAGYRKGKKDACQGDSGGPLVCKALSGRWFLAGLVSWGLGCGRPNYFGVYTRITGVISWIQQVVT
experiment-description: Matriptase 2 inhibition, fluorescence based assay (Method I)
Format: biochemical
measurement-setup: Table A; Ki of Matriptase-2; read-out: Mat-2 Ki
Entries and their measured Ki follow.

>>> print(df.to_string())
                                   compound  value_measured
0  Cn1ccc(COC(=O)c2cc3ccc(CN)nc3n2Cc2cc(NS(=O)(=O)Cc3ccccc3)cc3ccccc23)n1 [Compound 61]        ≤ 100 nM

Req: Recall and state the measured Ki for NCc1ccc2cc(C(=O)O)n(Cc3cc(NS(=O)(=O)CC[C@@H]4CCCN4)cc4ccccc34)c2n1 [Compound 1] .
Resp: ≤ 100 nM

Req: Fill in reported Ki for this entry: NCc1ccc2cc(C(=O)OCC3CC3)n(Cc3cc(NS(=O)(=O)Cc4ccccc4)cc4ccccc34)c2n1 [Compound 120]
Resp: 500 to 3000 nM

Req: Quick one: give measured Ki for NCc1ccc2cc(C(=O)NCCN3CCOCC3)n(Cc3cc(NS(=O)(=O)Cc4ccccc4)cc4ccccc34)c2n1 [Compound 60]
Resp: ≤ 100 nM

###

measurement-target: Human Recombinant Matriptase 2 (Homo sapiens)
Construct: made in house
experiment-description: Matriptase 2 inhibition, fluorescence based assay (Method I)
Assay type: biochemical
measurement-setup: Table A; Ki of Matriptase-2; read-out: Mat-2 Ki
recorded-metric: Ki

Sample answers from the record:
In [3]: df
Out[3]:
                                   molecule                        measurement_target  recorded_metric  value_measured
0  Cc1cscc1CS(=O)(=O)Nc1cc(Cn2c(C(=O)OCC3CCN(C)CC3)cc3ccc(CN)nc32)c2ccccc2c1  Human Recombinant Matriptase 2 (Homo sapiens)               Ki        ≤ 100 nM
1  CNCCOC(=O)c1cc2ccc(CN)nc2n1Cc1cc(NS(=O)(=O)Cc2ccsc2)cc2ccccc12  Human Recombinant Matriptase 2 (Homo sapiens)               Ki        ≤ 100 nM
2  NCc1ccc2cc(C(=O)OCCN(Cc3ccccc3)CC3CC3)n(Cc3cc(NS(=O)(=O)Cc4ccccc4)cc4ccccc34)c2n1  Human Recombinant Matriptase 2 (Homo sapiens)               Ki  500 to 3000 nM
3  CN(C)C(=O)COC(=O)c1cc2ccc(CN)nc2n1Cc1cc(NS(=O)(=O)Cc2ccccc2)cc2ccccc12  Human Recombinant Matriptase 2 (Homo sapiens)               Ki   100 to 500 nM
4  Cc1cccc(C)c1CS(=O)(=O)Nc1cc(Cn2c(C(=O)OCCN3CCN(C)CC3)cc3ccc(CN)nc32)c2ccccc2c1  Human Recombinant Matriptase 2 (Homo sapiens)               Ki        ≤ 100 nM

Req: # return recorded Ki for entry "NCc1ccc2cc(C(N)=O)n(Cc3cc(NS(=O)(=O)Cc4ccccc4)cc4ccccc34)c2n1"
Resp: ≤ 100 nM

Req: Give the value of Ki reported for the following: "NCc1ccc2cc(C(=O)OC[C@H]3CCCCN3)n(Cc3cc(NS(=O)(=O)Cc4ccccc4)cc4ccccc34)c2n1"
Resp: ≤ 100 nM

Req: Read off the recorded Ki for "CNCCOC(=O)c1cc2ccc(CN)nc2n1Cc1cc(NS(=O)(=O)Cc2ccccc2)cc2ccccc12"
Resp: ≤ 100 nM

Req: Retrieve Ki measured for "CC(=O)N(C)CCOC(=O)c1cc2ccc(CN)nc2n1Cc1cc(NS(=O)(=O)Cc2ccsc2)cc2ccccc12" and print it.
Resp: ≤ 100 nM

Req: Report measured Ki; entry is "COCCN1CCC(COC(=O)c2cc3ccc(CN)nc3n2Cc2cc(NS(=O)(=O)Cc3ccccc3)cc3ccccc23)CC1"
Resp: 100 to 500 nM

Req: Specify reported Ki for the molecule shown: "NCc1ccc2cc(C(=O)OCc3cccnc3)n(Cc3cc(NS(=O)(=O)Cc4ccccc4)cc4ccccc34)c2n1"
Resp: ≤ 100 nM

Req: Query Ki for "Cn1ccnc1COC(=O)c1cc2ccc(CN)nc2n1Cc1cc(NS(=O)(=O)Cc2ccsc2)cc2ccccc12"
Resp: ≤ 100 nM

Req: Identify the reported Ki for the following entry. C[C@@H](c1ccccc1)S(=O)(=O)Nc1cc(Cn2c(C(=O)OCC3CCN(C)CC3)cc3ccc(CN)nc32)c2ccccc2c1 (racemic)
Resp: ≤ 100 nM

All figures here come from patent US20240400553A1.
